Attribution: the MegaScale stability set (Tsuboyama et al. 2023)

B1: EHEE_rd4_0086 (parent)
chain: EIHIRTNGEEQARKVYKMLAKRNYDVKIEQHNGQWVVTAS

# Variants of: B1
# assay-method-text: folding stability dG (cDNA display proteolysis); higher = more stable
# condition-summary: PBS, room temperature
reported-property: folding stability dG (kcal/mol)
Answers are plain numbers, in kcal/mol.

INSERT INTO assay_data (variant_string, test_result) VALUES
  ('K14D', 1.21),
  ('I2F', 2.2),
  ('G8P', 0.221),
  ('E10S', 1.93),
  ('A39E', 0.112);

Give folding stability dG for all variants that follow.
1. K14V
2. E9R

Given back:
1.42
1.77

Give folding stability dG for all variants that follow.
1. R22W
2. V26A
3. V15E
4. S40D
5. E9L

Given back:
1: 2.29; 2: 1.1; 3: -0.159; 4: 0.806; 5: 2.44

Give folding stability dG for all variants that follow.
1. D25G
2. H31I
3. I2N
4. K14N
5. I2Q
6. Y16S

Given back:
1. 1.22
2. 2.43
3. 0.024
4. 1.29
5. 0.226
6. 1.5
